Experiment: Acute toxicity test
Settings: male, mouse, in vivo, iv, ddY mice, death rate up to 24 hours after administration
measure: LD50 at 24 h (mg/kg)
Kindly answer with a numeric value in mg/kg, unit omitted.

Record excerpt, results attached:
In [3]: df
Out[3]:
                                   molecule  recorded_result
0  c1ccc(Oc2ccc(C3CCN(C[C@@H]4C[C@H]4c4ccccc4)CC3)cc2)cc1 (relative stereo) [Compound 26]             32.9
1  Fc1ccc(Cc2ccc(C3CCN(C/C=C/c4ccccc4)CC3)cc2)cc1 [Compound 32]             32.9
2  Fc1ccc(Cc2ccc(N3CCN(C/C=C/c4ccccc4)CC3)cc2)cc1 [Compound 47]             43.2

What value of measured LD50 at 24 h is listed for C(=C\c1ccccc1)/CN1CCC(c2ccc(Oc3ccccc3)cc2)CC1 [Compound 21] ?
40.9

###

Target: Dopamine D2 receptor (Rattus norvegicus)
Construct: membrane fraction prepared from the striatum of Wister male rats
Sequence (P61169 whole entry): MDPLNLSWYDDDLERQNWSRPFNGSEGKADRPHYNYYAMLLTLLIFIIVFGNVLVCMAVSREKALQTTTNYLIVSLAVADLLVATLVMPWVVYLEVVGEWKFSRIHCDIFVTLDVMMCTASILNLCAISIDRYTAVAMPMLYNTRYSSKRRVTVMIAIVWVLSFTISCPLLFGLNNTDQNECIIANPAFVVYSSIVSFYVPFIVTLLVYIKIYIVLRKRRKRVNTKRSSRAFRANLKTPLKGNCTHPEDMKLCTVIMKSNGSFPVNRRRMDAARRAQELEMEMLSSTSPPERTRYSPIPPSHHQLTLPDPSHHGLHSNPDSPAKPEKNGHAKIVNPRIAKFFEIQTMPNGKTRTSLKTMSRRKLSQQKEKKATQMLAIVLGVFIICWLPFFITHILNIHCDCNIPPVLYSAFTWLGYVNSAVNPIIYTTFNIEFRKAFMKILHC
Test: Dopamine D2 receptor blocking action ([3H]raclopride binding, striatum membrane fraction)
Settings: 1.0 nM [3H]raclopride, 25° C., one hour
measure: IC50 (µM)
Kindly answer with a numeric value in µM, unit omitted.

What value of measured IC50 is listed for Fc1ccc(Cc2ccc(C3CCN(C/C=C/c4ccccc4)CC3)cc2)cc1 ?
3.36

What value of measured IC50 is listed for c1ccc(Oc2ccc(C3CCN(C[C@@H]4C[C@H]4c4ccccc4)CC3)cc2)cc1 (relative stereo) ?
3.37

What value of measured IC50 is listed for COc1cc(/C=C/CN2CCN(c3ccc(Cc4ccc(F)cc4)cc3)CC2)ccc1O ?
0.987

What value of measured IC50 is listed for Fc1ccc(Cc2ccc(N3CCN(C/C=C/c4ccccc4)CC3)cc2)cc1 ?
3.96

What value of measured IC50 is listed for C(=C\c1ccccc1)/CN1CCC(c2ccc(Oc3ccccc3)cc2)CC1 ?
2.68
